test system: 22RV1 human PC cells; test: XTT proliferation (cytotoxicity) assay, 22RV1; format: cell-based; conditions: 22RV1, pH 6, 24 h
Square brackets hold non-standard residues; d marks the D form. Peptide text beside a SMILES is read from it.
readout-type: Lethal Concentration (LC50) (mg/L)
Reply numerically in mg/L, unit not repeated.

As a guide, the following entries are already answered.
# compound, Lethal Concentration (LC50), mg/L
rows = [
    ("CC(C)C[C@H](NC(=O)[C@H](CC(C)C)NC(=O)[C@@H](CCCCN)NC(=O)[C@H](CC(C)C)NC(=O)[C@H](CC(C)C)NC(=O)[C@H](CCCCN)NC(=O)[C@@H](CCCCN)NC(=O)[C@@H](CC(C)C)NC(=O)[C@H](CC(C)C)NC(=O)[C@@H](CCCCN)NC(=O)[C@H](CCCCN)NC(=O)[C@H](CC(C)C)NC(=O)[C@@H](CC(C)C)NC(=O)[C@H](CCCCN)NC(=O)[C@@H](N)CC(C)C)C(N)=O [Peptide 1, reference compound] (H-LK[dL]LK[dK]L[dL][dK]KLL[dK]LL-NH2)", 25),
    ("CC(C)C[C@H](NC(=O)[C@H](CC(C)C)NC(=O)[C@@H](CCCCN)NC(=O)[C@H](CC(C)C)NC(=O)[C@H](CC(C)C)NC(=O)[C@H](Cc1c[nH]cn1)NC(=O)[C@@H](CCCCN)NC(=O)[C@@H](CC(C)C)NC(=O)[C@H](CC(C)C)NC(=O)[C@@H](CCCCN)NC(=O)[C@H](Cc1c[nH]cn1)NC(=O)[C@H](CC(C)C)NC(=O)[C@@H](CC(C)C)NC(=O)[C@H](CCCCN)NC(=O)[C@@H](N)CC(C)C)C(N)=O [Peptide 13] (H-LK[dL]LH[dK]L[dL][dK]HLL[dK]LL-NH2)", 12.5),
    ("CC(C)C[C@H](NC(=O)[C@H](CC(C)C)NC(=O)[C@@H](Cc1c[nH]cn1)NC(=O)[C@H](CC(C)C)NC(=O)[C@H](CC(C)C)NC(=O)[C@H](Cc1c[nH]cn1)NC(=O)[C@@H](Cc1c[nH]cn1)NC(=O)[C@@H](CC(C)C)NC(=O)[C@H](CC(C)C)NC(=O)[C@@H](CCCCN)NC(=O)[C@H](Cc1c[nH]cn1)NC(=O)[C@H](CC(C)C)NC(=O)[C@@H](CC(C)C)NC(=O)[C@H](Cc1c[nH]cn1)NC(=O)[C@@H](N)CC(C)C)C(N)=O [Peptide 16] (H-LH[dL]LH[dK]L[dL][dH]HLL[dH]LL-NH2)", 12.5),
]

Switching to the query record.
So what's the measured Lethal Concentration (LC50) for this one? CC(C)C[C@H](NC(=O)[C@H](CC(C)C)NC(=O)[C@@H](CCCCN)NC(=O)[C@H](CC(C)C)NC(=O)[C@H](CC(C)C)NC(=O)[C@H](Cc1c[nH]cn1)NC(=O)[C@@H](CCCCN)NC(=O)[C@@H](CC(C)C)NC(=O)[C@H](CC(C)C)NC(=O)[C@@H](CCCCN)NC(=O)[C@H](Cc1c[nH]cn1)NC(=O)[C@H](CC(C)C)NC(=O)[C@@H](CC(C)C)NC(=O)[C@H](Cc1c[nH]cn1)NC(=O)[C@@H](N)CC(C)C)C(N)=O [Peptide 14] (H-LH[dL]LH[dK]L[dL][dK]HLL[dK]LL-NH2)
12.5
